tested on: Escherichia coli; experiment: preservation efficacy test (PET), European Pharmacopoeia 5.1.3; assay type: cell-based; details: PET, Escherichia coli (EC), 7 days after inoculation
PROPERTY_LABEL: number of microorganisms, 7 days
Give the figure by itself; no unit, no explanation.

Tell me its number of microorganisms, 7 days given CCCCCCCC(=O)NO [caprylhydroxamic acid, reference compound] as the entry.
1

Tell me its number of microorganisms, 7 days given CCCCCCCC(O)CO (stereo not drawn) as the entry.
1

Tell me its number of microorganisms, 7 days given CC(=O)c1ccc(O)cc1 [4-Hydroxyacetophenone, reference compound] as the entry.
290

---

system: Escherichia coli; assay: preservation efficacy test (PET), European Pharmacopoeia 5.1.3; format: cell-based; details: EC; 28 days after inoculation; use concentration in label
PROPERTY_LABEL: count at 28 days
Give the figure by itself; no unit, no explanation.

Tell me its count at 28 days given CCCCC(O)C(C)O (stereo not drawn) [0.4% 2,3 Heptandiol] as the entry.
1

Tell me its count at 28 days given CCCCCC(O)CO (stereo not drawn) [1,2-heptanediol] as the entry.
1

Tell me its count at 28 days given O=C([O-])CN(CCN(CC(=O)O)CC(=O)O)CC(=O)[O-].[Na+].[Na+] [0.2 % Disodium EDTA] as the entry.
1.800

Tell me its count at 28 days given CCCCCCCC(=O)NO [0.4% caprylhydroxamic acid] as the entry.
1

Tell me its count at 28 days given OCCCO [0.8% 1,3-propanediol] as the entry.
1

Tell me its count at 28 days given CC(C)=CCC/C(C)=C/CC/C(C)=C/CO [0.3% farnesol] as the entry.
1.000

Tell me its count at 28 days given CC(O)C(=O)[O-].[Na+] (stereo not drawn) [0.8% sodium lactate (50%)] as the entry.
850

Tell me its count at 28 days given CCCCCC(O)CO (stereo not drawn) [0.4 % 1,2-heptanediol] as the entry.
1

Tell me its count at 28 days given Cc1ccc(C(C)C)c(O)c1 [0.1% Thymol] as the entry.
27

---

For each of the molecules below, state its count at 28 days.
tested on: Candida albicans; test: preservation efficacy test (PET), European Pharmacopoeia 5.1.3; assay type: cell-based; settings: CA; 28 days after inoculation; use concentration in label
Give the figure by itself; no unit, no explanation.

Under Candida albicans: report count at 28 days of Cc1cc(O)ccc1C(C)C [0.1% o-Cymen-5-ol] .
690.000

Under Candida albicans: report count at 28 days of CC(O)C(=O)[O-].[Na+] (centres unmarked) [0.8% sodium lactate (50%)] .
260.000

Under Candida albicans: report count at 28 days of CCCCCC(O)CO (centres unmarked) [0.4 % 1,2-heptanediol] .
27

Under Candida albicans: report count at 28 days of `O=C([O-])CC[C@@H](C(=O)[O-])N(CC(=O)[O-])CC(=O)[O-].[Na+].[Na+].[Na+].[Na+]` .
390.000

Under Candida albicans: report count at 28 days of CCCCC(O)C(C)O (centres unmarked) [0.4% 2,3-heptanediol] .
11.000

Under Candida albicans: report count at 28 days of Cc1ccc(C(C)C)c(O)c1 [0.1% Thymol] .
1.400

Under Candida albicans: report count at 28 days of CCCCC(O)C(C)O (centres unmarked) [0.4% 2,3 Heptandiol] .
76.000

Under Candida albicans: report count at 28 days of CCCCCCCC(=O)NO [0.4% caprylhydroxamic acid] .
1

---

For each of the compounds below, state its count at 14 days.
test system: Candida albicans; test: preservation efficacy test (PET), European Pharmacopoeia 5.1.3; format: cell-based; settings: CA; 14 days after inoculation; use concentration in label

Tell me its count at 14 days given CCCCC(O)C(C)O (centres unmarked) [0.4% 2,3 Heptandiol] as the entry.
39.000

Tell me its count at 14 days given CC(O)C(=O)[O-].[Na+] (centres unmarked) [0.8% sodium lactate (50%)] as the entry.
890.000

Tell me its count at 14 days given `Cc1ccc(C(C)C)c(O)c1` as the entry.
180

Tell me its count at 14 days given CC(=O)CCc1ccc(OCCO)cc1 [0.4% Hydroxyethoxyphenyl Butanone] as the entry.
490

Tell me its count at 14 days given `CC(=O)CCC(=O)O` as the entry.
240.000

Tell me its count at 14 days given CCCCCC(O)CO (centres unmarked) [0.4 % 1,2-heptanediol] as the entry.
590

Tell me its count at 14 days given CC(C)(C)C(=O)C(Oc1ccc(Cl)cc1)n1ccnc1 (centres unmarked) as the entry.
760.000

Tell me its count at 14 days given `OCCCO` as the entry.
630.000

Origin of the recorded values: patent US20230293407A1
